# study.target: AGO2 A367P (Homo sapiens, UniProt Q9UKV8 1-859, A367P;S387D;S824A;S828D;S831D;S834A)
# Sequence (Q9UKV8 whole entry A367P/S387D/S824A/S828D/S831D/S834A): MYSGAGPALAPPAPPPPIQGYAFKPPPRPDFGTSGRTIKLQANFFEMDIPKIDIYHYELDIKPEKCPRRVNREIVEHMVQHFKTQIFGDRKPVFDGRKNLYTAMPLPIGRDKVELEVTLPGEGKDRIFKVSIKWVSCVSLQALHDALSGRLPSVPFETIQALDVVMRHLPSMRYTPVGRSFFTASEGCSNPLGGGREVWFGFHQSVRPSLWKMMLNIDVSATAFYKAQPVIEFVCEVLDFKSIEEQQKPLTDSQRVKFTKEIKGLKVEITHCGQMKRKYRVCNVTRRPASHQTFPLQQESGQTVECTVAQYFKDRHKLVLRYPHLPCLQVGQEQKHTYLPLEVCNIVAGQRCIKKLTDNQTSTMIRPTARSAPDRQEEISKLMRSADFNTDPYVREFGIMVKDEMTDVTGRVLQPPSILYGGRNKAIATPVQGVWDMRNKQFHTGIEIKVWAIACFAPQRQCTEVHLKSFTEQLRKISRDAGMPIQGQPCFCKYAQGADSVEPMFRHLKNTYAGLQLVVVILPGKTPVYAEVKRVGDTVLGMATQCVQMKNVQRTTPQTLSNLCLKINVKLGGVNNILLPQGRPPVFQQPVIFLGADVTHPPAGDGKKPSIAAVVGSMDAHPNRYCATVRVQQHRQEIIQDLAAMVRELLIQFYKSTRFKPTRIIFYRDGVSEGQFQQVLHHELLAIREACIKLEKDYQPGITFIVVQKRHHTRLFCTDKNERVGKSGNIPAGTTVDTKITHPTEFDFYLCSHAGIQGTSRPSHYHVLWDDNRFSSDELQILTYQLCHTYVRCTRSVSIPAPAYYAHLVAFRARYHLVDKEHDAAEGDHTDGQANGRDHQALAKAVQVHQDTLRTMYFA
# assay.notes: RNA Bind-n-Seq (nitrocellulose filter binding and sequencing); miR-122 guide loaded in AGO2; 60 min incubation; 30 mM Tris pH 8.0, 100 mM potassium acetate, 2 mM magnesium acetate, 0.5 mM TCEP, 0.005% NP-40, 0.01 mg/ml yeast tRNA; 3 nM AGO2-miR-122, 100 nM RNA library; 60; high values mean tight binding
# condition.notes: protein: recombinant; tags: His6 (N-terminal, pFastBac HTA)
parameter: binding signal

ATATCTCA (ssRNA, constant regions annealed to DNA blockers; guide miR-122 5' phosphate) RNA 1: GAGUUCUACAGUCCGACGAUCCCAACAUAUCUCACACCUGGAAUUCUCGGGUGCCAA RNA 2: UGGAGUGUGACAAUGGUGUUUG DNA 1: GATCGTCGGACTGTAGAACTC DNA 2: TTGGCACCCGAGAATTCCA :: 0.396 fold enrichment over input

Could you share which binding signal value was measured for GCGCCTCA (ssRNA, constant regions annealed to DNA blockers; guide miR-122 5' phosphate) RNA 1: GAGUUCUACAGUCCGACGAUCCCAACGCGCCUCACACCUGGAAUUCUCGGGUGCCAA RNA 2: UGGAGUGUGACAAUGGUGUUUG DNA 1: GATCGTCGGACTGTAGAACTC DNA 2: TTGGCACCCGAGAATTCCA ?
0.233 fold enrichment over input
